Taken from the supplement of paper PMC5908809.

Tested on: normal NK cells expanded with K562-aAPC
Experiment: percent inhibition of viability; higher = more inhibition
Details: 72 h; IL-2 2.5 ng/mL; 10 nM
measurement.type: percent inhibition of viability (%)
Numeric answer only, unit % assumed.

compound	measurement.type	measured.number
CCc1cc2c(cc1N1CCC(N3CCOCC3)CC1)C(C)(C)c1[nH]c3cc(C#N)ccc3c1C2=O [Alectinib] (max concentration tested 1000 nM)	percent inhibition of viability	-2.33

// percent inhibition of viability lookup, compound = C[C@@]1(C(=O)Nc2ccc(F)nc2)CCCN1c1nc(Nc2cc(C3CC3)n[nH]2)c2cccn2n1 (max concentration tested 10000 nM) , result: -3.4

percent inhibition of viability reported for this compound COc1cc2/c(=N/c3ccc(Br)cc3F)nc[nH]c2cc1OCC1CCN(C)CC1 [Vandetanib] (max concentration tested 1000 nM) : -3.45

Recorded percent inhibition of viability (compound COc1c(C)cnc(Cn2cnc3c(Cl)nc(N)nc32)c1C [BIIB021] (max concentration tested 10000 nM) ): -2.67

Form field percent inhibition of viability, entry CC[C@@H]1C(=O)N(C)c2cnc(Nc3ccc(C(=O)NC4CCN(C)CC4)cc3OC)nc2N1C1CCCC1 [BI 2536] (max concentration tested 1000 nM) : 20.1

Please fill in: percent inhibition of viability reported for CO[C@H]1C[C@@H]2CC[C@@H](C)[C@@](O)(O2)C(=O)C(=O)N2CCCC[C@H]2C(=O)O[C@H]([C@H](C)C[C@@H]2CC[C@@H](OP(C)(C)=O)[C@H](OC)C2)CC(=O)[C@H](C)/C=C(\C)[C@@H](O)[C@@H](OC)C(=O)[C@H](C)C[C@H](C)/C=C/C=C/C=C/1C [Ridaforolimus] (max concentration tested 100 nM) = 10.6

###

Test system: KHYG-1 (IL-2 2.5 ng/mL)
Assay: drug sensitivity score (DSS) (DSS units); higher = more sensitive; extreme values may be limits of the assay
Settings: 72 h
measurement.type: drug sensitivity score
The answer should be a number; do not append a unit.

Please review the entries below; each comes with its answer.
molecule	drug sensitivity score
COc1cc2c(Oc3ccc4[nH]c(C)cc4c3F)ncnc2cc1OCCCN1CCCC1 [Cediranib] (max concentration tested 1000 nM)	0
CNC(=O)CN1CCC(Oc2cc3c(Nc4cccc(Cl)c4F)ncnc3cc2OC)CC1 [Sapitinib] (max concentration tested 1000 nM)	0
Cc1cnc(Nc2ccc(OCCN3CCCC3)cc2)nc1Nc1cccc(S(=O)(=O)NC(C)(C)C)c1 (max concentration tested 10000 nM)	19
Cc1ccc(NC(=O)c2ccc(CN3CCN(C)CC3)cc2)cc1Nc1nc(-c2cccnc2)cs1 [Masitinib] (max concentration tested 10000 nM)	6.29

Okay, now this molecule:
Looking up COc1cc2nccc(Oc3ccc(NC(=O)Nc4cc(C)on4)c(Cl)c3)c2cc1OC [Tivozanib] (max concentration tested 10000 nM) , I see its drug sensitivity score listed as 4.48

###

Test system: NK-YS (IL-2 2.5 ng/mL)
Experiment: percent inhibition of viability; higher = more inhibition
Details: 72 h; 10000 nM
measurement.type: percent inhibition of viability
Answer with the number, then the unit.

Record summary for CNC(=O)c1cccc(-c2ccc3c(N4CCOC[C@@H]4C)nc(N4CCOC[C@@H]4C)nc3n2)c1 [AZD2014] (max concentration tested 10000 nM) : reported percent inhibition of viability = 81.5%

###

Attribute: drug sensitivity score
Test system: KHYG-1 (IL-2 2.5 ng/mL)
Test: drug sensitivity score (DSS) (DSS units); higher = more sensitive; extreme values may be limits of the assay
Settings: 72 h
Write no unit; give the number alone.

compound	target	measurement.type	measured.number
CN(C)C1CCN(C(=O)c2ccc(NC(=O)Nc3ccc(-c4nc(N5CCOCC5)nc(N5CCOCC5)n4)cc3)cc2)CC1 [Gedatolisib] (max concentration tested 1000 nM)	KHYG-1 (IL-2 2.5 ng/mL)	drug sensitivity score	2.77
CCCS(=O)(=O)Nc1ccc(F)c(C(=O)c2c[nH]c3ncc(-c4ccc(Cl)cc4)cc23)c1F [Vemurafenib] (max concentration tested 10000 nM)	KHYG-1 (IL-2 2.5 ng/mL)	drug sensitivity score	11.1
CC(=O)O[C@H]1C(=O)[C@@]2(C)[C@H]([C@H](OC(=O)c3ccccc3)[C@]3(O)C[C@H](OC(=O)[C@H](O)[C@@H](NC(=O)c4ccccc4)c4ccccc4)C(C)=C1C3(C)C)[C@]1(OC(C)=O)CO[C@@H]1C[C@@H]2O [Paclitaxel] (max concentration tested 1000 nM)	KHYG-1 (IL-2 2.5 ng/mL)	drug sensitivity score	26.9

drug sensitivity score reported for this compound O=C(Nc1cccc(C(F)(F)F)c1)Nc1cc(S(=O)(=O)NC2CC2)ccc1-c1ccsc1 [AGI-6780] (max concentration tested 10000 nM) : 2.61

Just so you know, measured drug sensitivity score for Cc1ccc(F)c(NC(=O)Nc2ccc(-c3cccc4[nH]nc(N)c34)cc2)c1 [Linifanib] (max concentration tested 1000 nM) came out at 0

###

System: YT (IL-2 2.5 ng/mL)
Assay: percent inhibition of viability; higher = more inhibition
Conditions: 72 h; 10 nM
measurement.type: percent inhibition of viability (%)
Answer with a number only, understood to be in %.

compound	percent inhibition of viability / %
O=C(Cc1ccc(-c2ccc(OCCN3CCOCC3)cc2)cn1)NCc1ccccc1 [KX2-391] (max concentration tested 10000 nM)	14.7
CNC(=O)CN1CCC(Oc2cc3c(Nc4cccc(Cl)c4F)ncnc3cc2OC)CC1 [Sapitinib] (max concentration tested 1000 nM)	8.28

percent inhibition of viability reading for Nc1nc(N)c2nc(-c3cccc(O)c3)c(-c3cccc(O)c3)nc2n1 [TG100-115] (max concentration tested 10000 nM) : 2.49

percent inhibition of viability for CCc1cc2c(cc1N1CCC(N3CCOCC3)CC1)C(C)(C)c1[nH]c3cc(C#N)ccc3c1C2=O [Alectinib] (max concentration tested 1000 nM) is -6.26

Just so you know, measured percent inhibition of viability for Cc1ccc(F)c(NC(=O)Nc2ccc(-c3cccc4[nH]nc(N)c34)cc2)c1 [Linifanib] (max concentration tested 1000 nM) came out at -1.04

The compound identified as Cc1cc(C)c(/C=C2\C(=O)Nc3ccccc32)[nH]1 [Semaxanib] (max concentration tested 10000 nM) registered its percent inhibition of viability at -2.52

Lookup result for C#Cc1cccc(Nc2ncnc3cc(OC)c(OCCCCCCC(=O)NO)cc23)c1 [CUDC-101] (max concentration tested 10000 nM) ; measured percent inhibition of viability: 0.94

Entry COc1cc2c(NC3CCN(C(C)C)CC3)nc(N3CCC(F)(F)CC3)nc2cc1OCCCN1CCCC1 [UNC0642] (max concentration tested 10000 nM) — recorded percent inhibition of viability = -3.26

Quick note, percent inhibition of viability for CO[C@H]1C[C@@H]2CC[C@@H](C)[C@@](O)(O2)C(=O)C(=O)N2CCCC[C@H]2C(=O)O[C@H]([C@H](C)C[C@@H]2CC[C@@H](OP(C)(C)=O)[C@H](OC)C2)CC(=O)[C@H](C)/C=C(\C)[C@@H](O)[C@@H](OC)C(=O)[C@H](C)C[C@H](C)/C=C/C=C/C=C/1C [Ridaforolimus] (max concentration tested 100 nM) landed at 48.4

Reported percent inhibition of viability of COc1cccc2c1C(=O)c1c(O)c3c(c(O)c1C2=O)C[C@@](O)(C(=O)CO)C[C@@H]3O[C@H]1C[C@H](N)[C@H](O)[C@H](C)O1 [Doxorubicin] (max concentration tested 1000 nM) : -0.81

So for Cc1ccc(NC(=O)c2ccc(CN3CCN(C)CC3)cc2)cc1Nc1nc(-c2cccnc2)cs1 [Masitinib] (max concentration tested 10000 nM) , the logged percent inhibition of viability turned out to be -0.59

Value of measured percent inhibition of viability for the entry C[C@]1(O)C[C@@H](c2nc(-c3ccc4ccc(-c5ccccc5)nc4c3)c3c(N)nccn32)C1 [Linsitinib] (max concentration tested 10000 nM) : 2.48

The compound listed as CCCS(=O)(=O)Nc1ccc(F)c(C(=O)c2c[nH]c3ncc(-c4ccc(Cl)cc4)cc23)c1F [Vemurafenib] (max concentration tested 10000 nM) has a reported percent inhibition of viability of -1.61

###

System: normal primary NK cells, pool 2 (3 donors) (IL-2 2.5 ng/mL)
Assay: percent inhibition of viability; higher = more inhibition
Settings: 72 h; 10 nM
measurement.type: percent inhibition of viability (%)
# number only, unit % dropped from output

Use the examples below as a reference point.
molecule	units	measured.number
COc1cc(OC2CCN(C)CC2)ccc1Nc1ncc2c(n1)n(C1CCCC1)c(=O)n2C [AZ 3146] (max concentration tested 10000 nM)	%	-0.67
O=C(Nc1cccc(C(F)(F)F)c1)Nc1cc(S(=O)(=O)NC2CC2)ccc1-c1ccsc1 [AGI-6780] (max concentration tested 10000 nM)	%	-3.85
O=C(Nc1cccnc1)N1CCC(Cc2cccc(Oc3ccc(C(F)(F)F)cn3)c2)CC1 [PF-3845] (max concentration tested 10000 nM)	%	3.71

Now for the molecule whose percent inhibition of viability we want.
Record O=C(O)CCCCC(CCSCc1ccccc1)SCc1ccccc1 (configuration not stated) [CPI-613] (max concentration tested 10000 nM) . Reported percent inhibition of viability: 4.64
